Study target: IRAP (Homo sapiens, UniProt Q9UIQ6)
Construct: expressed in transfected cells; host or cells: HEK 293T cells (solubilised membrane protein)
Sequence (Q9UIQ6 whole entry): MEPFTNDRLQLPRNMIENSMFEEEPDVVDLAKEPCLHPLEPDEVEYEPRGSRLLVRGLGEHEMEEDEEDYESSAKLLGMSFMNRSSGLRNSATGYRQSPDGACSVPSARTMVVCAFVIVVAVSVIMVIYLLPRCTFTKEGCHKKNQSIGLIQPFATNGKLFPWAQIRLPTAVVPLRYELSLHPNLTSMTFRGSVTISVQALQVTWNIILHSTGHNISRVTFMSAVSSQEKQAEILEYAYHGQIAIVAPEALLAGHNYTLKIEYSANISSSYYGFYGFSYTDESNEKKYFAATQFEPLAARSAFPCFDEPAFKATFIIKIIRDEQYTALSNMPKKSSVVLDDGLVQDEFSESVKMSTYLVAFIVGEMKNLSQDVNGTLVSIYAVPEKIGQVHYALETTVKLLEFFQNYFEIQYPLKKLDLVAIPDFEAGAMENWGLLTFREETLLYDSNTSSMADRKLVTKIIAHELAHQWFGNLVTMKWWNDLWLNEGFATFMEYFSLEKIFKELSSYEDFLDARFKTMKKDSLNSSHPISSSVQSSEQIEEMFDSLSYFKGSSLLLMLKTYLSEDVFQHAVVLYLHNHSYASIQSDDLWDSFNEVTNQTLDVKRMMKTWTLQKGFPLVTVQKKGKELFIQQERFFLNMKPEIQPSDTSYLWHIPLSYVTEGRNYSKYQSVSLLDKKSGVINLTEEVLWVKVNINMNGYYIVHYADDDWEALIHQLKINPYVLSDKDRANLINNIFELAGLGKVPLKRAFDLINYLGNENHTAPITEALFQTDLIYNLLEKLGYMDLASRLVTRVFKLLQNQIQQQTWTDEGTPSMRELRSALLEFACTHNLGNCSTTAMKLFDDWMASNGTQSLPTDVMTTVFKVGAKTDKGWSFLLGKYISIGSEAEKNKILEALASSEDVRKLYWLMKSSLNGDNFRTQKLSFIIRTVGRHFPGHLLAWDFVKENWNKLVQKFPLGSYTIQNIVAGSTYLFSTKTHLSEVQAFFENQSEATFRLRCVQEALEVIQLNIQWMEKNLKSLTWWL
Test description: IRAP enzymatic activity, hydrolysis of L-leucine-β-naphthylamide (fluorescence)
Format: biochemical
Where no end group is shown, it is not given here.
Metric name: pKi
pKi is defined as minus the log10 of a concentration measured in mol/L.

Give pKi for LVVYPWTQRF 6.07
